Value source: patent US20240083908A1

Target: human recombinant PARG (Homo sapiens (Human), UniProt Q86W56)
Sequence (Q86W56 whole entry): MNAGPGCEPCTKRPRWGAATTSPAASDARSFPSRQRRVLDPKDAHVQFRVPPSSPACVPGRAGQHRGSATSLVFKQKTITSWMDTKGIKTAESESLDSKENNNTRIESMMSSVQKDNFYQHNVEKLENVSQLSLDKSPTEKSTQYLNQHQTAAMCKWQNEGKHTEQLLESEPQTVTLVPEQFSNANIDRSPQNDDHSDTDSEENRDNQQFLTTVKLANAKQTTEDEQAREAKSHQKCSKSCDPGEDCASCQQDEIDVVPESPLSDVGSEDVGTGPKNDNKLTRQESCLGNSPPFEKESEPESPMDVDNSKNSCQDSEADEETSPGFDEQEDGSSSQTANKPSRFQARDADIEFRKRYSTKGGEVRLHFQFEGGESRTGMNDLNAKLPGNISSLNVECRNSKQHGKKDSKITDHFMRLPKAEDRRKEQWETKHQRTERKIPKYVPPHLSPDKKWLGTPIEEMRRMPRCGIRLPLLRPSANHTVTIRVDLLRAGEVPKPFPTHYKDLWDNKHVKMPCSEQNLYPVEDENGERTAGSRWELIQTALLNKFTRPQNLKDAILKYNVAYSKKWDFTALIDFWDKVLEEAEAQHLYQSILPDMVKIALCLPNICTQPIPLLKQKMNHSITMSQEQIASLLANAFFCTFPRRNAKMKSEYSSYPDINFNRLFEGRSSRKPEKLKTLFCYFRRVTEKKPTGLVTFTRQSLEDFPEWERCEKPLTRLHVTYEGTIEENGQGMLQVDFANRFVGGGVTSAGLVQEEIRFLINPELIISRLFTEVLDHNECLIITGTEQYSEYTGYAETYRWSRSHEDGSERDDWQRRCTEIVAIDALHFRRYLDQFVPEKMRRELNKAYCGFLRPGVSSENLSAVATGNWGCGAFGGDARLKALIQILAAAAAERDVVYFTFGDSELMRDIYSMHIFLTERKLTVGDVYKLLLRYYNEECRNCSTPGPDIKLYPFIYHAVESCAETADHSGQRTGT
Assay: PARG Activity Assay
Conditions: recombinant human PARG 0.0185 nM, 1 hour pre-incubation, poly (ADP-ribose) substrate-coated plate, Abs 450
reported_endpoint: IC50
Remember to put the unit after the number in your answer.

compound	measured
Cn1cc(Cn2c(=O)c3cc(S(=O)(=O)NC4(C)CC4)sc3n(Cc3cncnc3)c2=O)cn1 [Ex 34]	300 nM

// query Fill in reported IC50 for this entry: CN(c1ccc(Cn2c(=O)n(Cc3cnn(C)c3)c(=O)c3cc(S(=O)(=O)NC4(C)CC4)sc32)cc1F)C1CC1 [Ex 74]
// result 210 nM

// query Fill in reported IC50 for this entry: Cc1c[nH]c(Cn2c(=O)n(Cc3cnn(C)c3)c(=O)c3cc(S(=O)(=O)NC4(C)CC4)sc32)c(C)c1=O [Ex 134]
// result 6040 nM

// query Fill in reported IC50 for this entry: Cn1cc(Cn2c(=O)c3cc(S(=O)(=O)NC4(C)CC4)sc3n(Cc3ccc(N4CCCC4)nc3)c2=O)cn1 [Ex 82]
// result 97 nM
